Values compiled from the supplement of paper PMC10567573.

B1: PCDHGA10 (parent)
chain: FGIEIEVTDINDNAPKFQAENLDV

variants of: B1; assay: protein stability index of a GFP-peptide fusion (GPS, HEK-293T) (PSI 1-6); higher = more stable; conditions: c terminus: a fixed tail appended;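 note: lentivirally expressed fusions sorted by FACS into six bins by GFP to DsRed ratio, PSI derived from sequencing read proportions per bin multiplied by bin number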

Item sequence	protein stability index
FGIEQEVTDINDNAPKFQAENLDV [I5Q]	4.71
FGIEIEVHDINDNAPKFQAENLDV [T8H]	2.78
FGIEIEVTDFNDNAPKFQAENLDV [I10F]	2.4
FGIEIEVTDINDNAPKFWAENLDV [Q18W]	1.93
FGIEIEVTDINDNAPKFQAESLDV [N21S]	2.54
FGIEIEVTDINDNAPKFQAENPDV [L22P]	3.36
FGIEIEVTDINDLAPKFQAENLDV [N13L]	1.91
FGIEIEVTPINDNAPKFQAENLDV [D9P]	2.53
FGIEYEVTDINDNAPKFQAENLDV [I5Y]	3.85
FGIEIEVTDTNDNAPKFQAENLDV [I10T]	3.28
FGIEIEVTDINDNAPKIQAENLDV [F17I]	3.37
FGIEIEVTDINDNAQKFQAENLDV [P15Q]	3.11
FGINIEVTDINDNAPKFQAENLDV [E4N]	3.34
FGIEIEVTDINDNAPDFQAENLDV [K16D]	3.46
FGIEIGVTDINDNAPKFQAENLDV [E6G]	3.56
FGIRIEVTDINDNAPKFQAENLDV [E4R]	2.18
FGKEIEVTDINDNAPKFQAENLDV [I3K]	4.73
FGICIEVTDINDNAPKFQAENLDV [E4C]	2.6
FGIEIEVTDINDNAMKFQAENLDV [P15M]	2.66
FGIEIEVTEINDNAPKFQAENLDV [D9E]	2.69
FGIEIEVTDINDNAPKFQALNLDV [E20L]	1.33
FGIEIEVTDINDNAPKFYAENLDV [Q18Y]	1.53
